Test system: HCT116
Experiment: MTT cytotoxicity assay, HCT116
Details: read-out: cytotoxicity IC50 HCT116; Tables 3A/4B/4C; MTT assay
Attribute measured: IC50 (nM)
Expressed in nM, but write only the number.

Guide cases for IC50, answers given:
- Compound: "CC1/C(=C\\c2ccc([N+](=O)[O-])cc2)C(=O)/C(=C/c2ccc([N+](=O)[O-])cc2)CN1C(=O)[C@H](Cc1ccccc1)NC(=O)CCl (some centres unmarked) [RA414]"
  IC50, nM: 20
- Compound: "N[C@@H](Cc1ccccc1)C(=O)N1C/C(=C\\c2ccc([N+](=O)[O-])cc2)C(=O)/C(=C/c2ccc([N+](=O)[O-])cc2)C1 [RA183, reference compound]"
  IC50, nM: 193
- Compound: "O=C(CCl)N[C@@H](Cc1ccccc1)C(=O)N1C/C(=C\\c2ccc([N+](=O)[O-])cc2)C(=O)/C(=C/c2ccc([N+](=O)[O-])cc2)C1 [RA375]"
  IC50, nM: 89

Request: Would you kindly share the measured IC50 for N[C@@H](Cc1ccccc1)C(=O)N1C/C(=C\c2ccc(Cl)c(Cl)c2)C(=O)/C(=C/c2ccc(Cl)c(Cl)c2)C1 [RA190, reference compound] ?
Response: 239

Request: Which value of IC50 has been reported for `C[C@H]1/C(=C\c2ccc([N+](=O)[O-])cc2)C(=O)/C(=C/c2ccc([N+](=O)[O-])cc2)CN1C(=O)[C@@H](N)Cc1ccccc1` in the records?
Response: 80
